These entries and their values trace back to patent US20240199644A1.

- tested on: GppNp-loaded HIS-KRAS(G12D, aa 1-169) / cRAF RBD (Homo sapiens (Human), UniProt P01116, G12D)
- Sequence (P01116 other isoform, or with tags, fused parts or gaps G12D): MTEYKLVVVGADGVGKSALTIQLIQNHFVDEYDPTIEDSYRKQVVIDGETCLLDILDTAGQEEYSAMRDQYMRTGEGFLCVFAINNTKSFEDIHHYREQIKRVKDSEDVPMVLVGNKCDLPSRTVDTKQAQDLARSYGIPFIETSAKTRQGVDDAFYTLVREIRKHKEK
- assay text: GTP-KRAS and cRAF interaction assay
- cond: HTRF; 2.0 nM GppNp-loaded HIS-KRAS(G12D), 35 nM cRAF RBD, 100 μM GTP, 2 hours at 25° C.
measured quantity: log10 IC50 (log10 of the value in nM)
Hello, just confirming the data are log10 of IC50 with units of nM.

Please review the entries below; each comes with its answer.
molecule	log10 IC50
C#Cc1cccc2cc(O)cc(-c3cc4c5c(nc(OCC6(CN7CCOCC7)CC6)nc5c3F)N3[C@H]5CN[C@H](C5)[C@@H]3CO4)c12	2.82
C#Cc1c(F)ccc2cc(O)cc(-c3c(Cl)c4c5c(nc(OC[C@@]67CCCN6C[C@H](F)C7)nc5c3F)N3C[C@H]5CC[C@H](N5)[C@H]3CO4)c12 (atropisomer, axis not shown) [Compound 12]	2.19
C#Cc1cccc2cc(O)cc(-c3cc4c5c(nc(OCC6(CN7CCOCC7)CC6)nc5c3F)N3C[C@H]5CC[C@H](N5)[C@H]3CO4)c12	1.31

Supply measured log10 IC50 of CN(C)CC1(COc2nc3c4c(c(Cl)c(-c5cc(O)cc6ccccc56)cc4n2)OC[C@@H]2CNCCN32)CC1 in your reply.
4.50

Recall and state the measured log10 IC50 for C#Cc1c(F)ccc2cc(O)cc(-c3cc4c5c(nc(OC[C@@]67CCCN6C[C@H](F)C7)nc5c3F)N3C[C@H]5CC[C@H](N5)[C@H]3CO4)c12 .
0.73

Tell us which log10 IC50 value is on record for C#Cc1cccc2cc(O)cc(-c3cc4c5c(nc(OCC6(CN7CCOCC7)CC6)nc5c3F)N3[C@@H]5CN[C@@H](C5)[C@@H]3CO4)c12
2.40
